This collection of values is drawn from ChEMBL document CHEMBL3044874.

- System: Rattus norvegicus
- protocol summary: Anticonvulsant activity in Rattus norvegicus Wistar (rat) assessed as protection against maximal electroshock-induced seizure at 30 mg/kg, po measured at 2 hr
- Format: functional, organism-based
- Design: dose 30 mg/kg
Active and inactive are the calls of the source. The calls are words filed in the database; no cut-off is given here.
quantity: Activity

Here are 5 compounds together with their reported answers.
{"compound": "COc1ccccc1/C=N/Cc1cccnc1", "Activity": "Active"}
{"compound": "COc1ccc(/C=N/Cc2cccnc2)cc1O", "Activity": "Active"}
{"compound": "C/C(=N\\Cc1cccnc1)c1cccc(N)c1", "Activity": "Active"}
{"compound": "c1ccc(C(=NCc2cccnc2)c2ccccc2)cc1", "Activity": "inactive"}
{"compound": "Clc1ccc(/C=N/Cc2cccnc2)cc1", "Activity": "inactive"}

compound `O=[N+]([O-])c1ccc(/C=N/Cc2cccnc2)cc1` , Activity observed: inactive

compound OC(/C(=N\Cc1cccnc1)c1ccccc1)c1ccccc1 (centres undefined) , Activity observed: Active

compound `Clc1ccccc1/C=N/Cc1cccnc1` , Activity observed: Active

compound `COc1cc(/C=N/Cc2cccnc2)cc(OC)c1OC` , Activity observed: Active

compound `C(=N\Cc1cccnc1)/c1ccccc1` , Activity observed: Active

compound `O=C1NC(=O)C(c2ccccc2)(c2ccccc2)N1` , Activity observed: Active

compound `C(=C\c1ccccc1)/C=N/Cc1cccnc1` , Activity observed: inactive

compound `COc1cc(/C=N/Cc2cccnc2)ccc1O` , Activity observed: Active

compound `C/C(=N\Cc1cccnc1)c1ccccc1` , Activity observed: Active
